Quick reference: %Inh of the listed items.
Test system: PIK3CD
Details: concentration: 1 μM, replicates: in singlicate; n = 1;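 note: KINOMEscan kinase panel screen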
Report the figure in % without appending any unit label.

Provide one value: measured %Inh of COc1ccc(Nc2nccc(N3CCC(NC(=O)C(C)c4ccc(Cl)cc4)CC3)n2)cc1 (stereo not drawn) 0

* * *

Tested on: NEK11
Conditions: concentration: 1 μM, replicates: in singlicate; n = 1
outcome measure: %Inh (%)
Report only the number, with the unit % understood.

# example entries with known answers
molecule	system tested	outcome measure	observed value
O=C(Nc1n[nH]c2nc(-c3ccco3)c(Br)cc12)C1CCN(Cc2ccccc2)C1.O=C(O)[C@H](O)[C@@H](O)C(=O)O (centres unmarked)	NEK11	%Inh	1
CNCc1ccc2nc(NC(=O)c3ccc(C(C)(C)C)cc3)cn2c1	NEK11	%Inh	34
COc1cccc(CNC(=O)NC2CCN(c3ccnc(Nc4ccc(F)cc4)n3)C2)c1 (centres unmarked)	NEK11	%Inh	0

Then this molecule:
Entry Cc1c(Cn2c3ccccc3n3c(=O)cc(N4CCOCC4)nc23)cccc1C(F)(F)F needs its %Inh filled in; supply it. 0

* * *

System: PIK4CB
Construct: gene PI4KB
Conditions: concentration: 1 μM, replicates: in singlicate; n = 1
outcome measure: %Inh (%)
Could you give me the number in %? Just the number is fine.

molecule	observed value
c1ccc(-c2ccnc3[nH]ccc23)cc1	4
CCn1c(-c2c(N)noc2C)nc2cnccc21	0
COc1nccc(-c2c(-c3ccc(F)cc3)ncn2CCCN2CCOCC2)n1	49

Kindly consider the entry below.
Using the record for Fc1ccc(-c2nc[nH]c2-c2ccncc2)cc1 , state its measured %Inh. 0

* * *

Tested on: PRKX
Conditions: concentration: 1 μM, replicates: in singlicate; n = 1
Param threshold (20%) applies to %Inh; output 1 when value >= threshold, 0 when value < threshold.

Example cases with answers are listed next.
compound	class
COC(=O)C(NC(=O)NC1CCN(c2ccnc(Nc3ccc(F)cc3)n2)C1)c1ccccc1 (centres unmarked)	0
Cc1cnc(N)c(/C=C/c2cncc(C(=O)NCCc3ccc(Cl)cc3Cl)c2)c1.Cl	0

Please examine the following record next.
Answer whether %Inh of Cc1ccc(NC(=O)c2ccc(Cl)cc2)cc1-c1ccc(C(=O)Nc2ccncc2)cc1 is greater than or equal to 20%. 1

* * *

Test system: WNK4
Conditions: concentration: 1 μM, replicates: in singlicate; n = 1
Collected %Inh values appear next to each entry.
Write down the numeric answer in % and omit the unit.

Tell me measured %Inh for COc1ccc(CSc2nnc(-c3ccc4c(c3)CCO4)o2)cc1 please. 0

Identify the reported %Inh for the following entry. CN1c2ccc(-c3ccc(C(N)=O)cc3)cc2-c2[nH]ncc2S1(=O)=O 0

Specify %Inh for CC[C@@H]1CO[C@H](C(=O)Nc2ccccc2)CN1c1cc(-c2ccc3c(N)n[nH]c3c2)nc(NC)n1 and stop. 0

Determine its reported %Inh: CC(=O)c1cccc(NC(=O)NC2CCN(c3ccnc(Nc4ccc(F)cc4)n3)C2)c1 (stereo not drawn) 22

Name the recorded %Inh of the compound listed here: Fc1ccc(-c2nc[nH]c2-c2ccncc2)cc1 2

Specify measured %Inh for CS(=O)(=O)CCNCc1nc(-c2ccc3ncnc(Nc4ccc5c(cnn5Cc5ccccc5)c4)c3c2)cs1.Cl.Cl . 62

* * *

Tested on: PIM1
Conditions: concentration: 1 μM, replicates: in singlicate; n = 1
Rule: %Inh of 9% or more gives 1.0; anything lower gives 0.0.

Reference set, count: 5
molecule	system tested	class
CS(=O)(=O)CCNCc1nc(-c2ccc3ncnc(Nc4ccc5c(cnn5Cc5ccccc5)c4)c3c2)cs1.Cl.Cl	PIM1	1.0
CNc1nc(-c2ccc3c(N)n[nH]c3c2)cc(N2C[C@@H](C(=O)Nc3ccccc3)CC[C@H]2C)n1	PIM1	0.0
CCCCc1nn2ncccc2c1-c1ccnc(NC2CC2)n1	PIM1	0.0
Cc1nccc(-c2c(-c3ccc(F)cc3)ncn2CCCN2CCOCC2)n1.Cl	PIM1	0.0
Cc1cnc(N)c(/C=C/c2cncc(C(=O)NCCc3ccc(Cl)cc3Cl)c2)c1.Cl	PIM1	1.0

# check: %Inh of Cc1ccc(-c2nc(Nc3ccncc3)c3ccccc3n2)s1 is greater than or equal to 9% 1.0

Decide: is the reported value of %Inh for COc1ccc(Nc2nccc(NCCNC(=O)Nc3cc(C)ccc3C)n2)cc1 equal to or greater than 9%? 0.0

# check: %Inh of CC(=O)c1c(C)c2cnc(Nc3ccn(C)n3)nc2n(C2CCCC2)c1=O is greater than or equal to 9% 0.0

Reported %Inh reaches at least 9% for Cc1c(Cn2c3ccccc3n3c(=O)cc(N4CCOCC4)nc23)cccc1C(F)(F)F ? 0.0

Has CS(=O)(=O)CCNCc1nc(-c2ccc3ncnc(Nc4ccc(OCc5ccccc5)c(Cl)c4)c3c2)cs1.Cl a recorded %Inh greater than or equal to 9%? 1.0

# bool: %Inh of Cn1cncc1C(=O)NC1CCN(c2ccnc(Nc3ccc(F)cc3)n2)C1 (stereo not drawn) >= 9% 1.0

Reported %Inh reaches at least 9% for COc1ccc(Nc2nccc(-c3ccc(NC(=O)c4cc5cc(F)ccc5[nH]4)cc3)n2)cc1 ? 0.0

Identify whether the reported %Inh of the following molecule is 9% or greater: O=c1cc(N2CCOCC2)nc2n(Cc3ccccc3F)ccn12 0.0

Quick check: does CNC(=O)c1ccc(C)c(-n2c(C)cc(OCc3ccc(F)cc3F)c(Br)c2=O)c1 have %Inh greater than or equal to 9%? 0.0

* * *

System: FLT3-autoinhibited
Details: concentration: 1 μM, replicates: in singlicate; n = 1
Catalogue of %Inh values
Use % as the unit, but write only the number.

Identify the reported %Inh for the following entry. CCn1c(-c2ccccc2)nc2cnccc21 0

Give %Inh for CC(=O)c1c(C)c2cnc(Nc3ccc(N4CCNCC4)cn3)nc2n(C2CCCC2)c1=O 0

Kindly indicate its recorded %Inh. Item: Cl.Cl.Cl.N#Cc1ccc(CCNc2nccc(-c3cccc(CN4CCNCC4)c3)n2)cc1 0

For the molecule Cc1ccc(NC(=O)Nc2ccc(Cl)cc2)cc1-c1ccc(C(=O)Nc2ccncc2)cc1 , give its reported %Inh. 3

Give a short answer stating reported %Inh for CCc1ccc(-c2ccc3c(c2)-c2n[nH]cc2S(=O)(=O)N3C)cc1 . 4

* * *

Test system: ACVR1B
Details: concentration: 1 μM, replicates: in singlicate; n = 1
Entries and their %Inh values follow.
State the answer as a number, implicitly in %.

Answered examples (3):
structure	system tested	%Inh (%)
Cc1ccc(NC(=O)Nc2ccccc2F)cc1-c1ccc(C(=O)Nc2ccncc2)cc1	ACVR1B	3
CS(=O)(=O)Cc1ccc(Nc2nccc(-c3c(-c4cccc(NC(=O)C5CCCCC5)c4)nn4ncccc34)n2)cc1	ACVR1B	0
Nc1nccc(-c2c(-c3ccc(F)cc3)ncn2C2CCN(Cc3ccccc3)CC2)n1	ACVR1B	0

Moving on to the next molecule.
Return the recorded %Inh value; entry: CC[C@@H]1CO[C@H](C(=O)Nc2ccccc2)CN1c1cc(-c2ccc3c(N)n[nH]c3c2)nc(NC)n1 0

* * *

Test system: TXK
Conditions: concentration: 1 μM, replicates: in singlicate; n = 1
Output Yes for records whose %Inh is lower than 20%, No for records at or above 20%.

Answered cases to consult:
molecule	class
CS(=O)(=O)Cc1ccc(Nc2nccc(-c3c(-c4cccc(NC(=O)C5CCCCC5)c4)nn4ncccc34)n2)cc1	Yes
Cc1ccc(NC(=O)c2ccc(Cl)cc2)cc1-c1ccc(C(=O)Nc2ccncc2)cc1	Yes
Cc1cccc2c(-c3ccncn3)c(-c3ccc(F)cc3)nn12	Yes
CNc1cc(-c2ccc3c(N)n[nH]c3c2)nc(N)n1	Yes

Continue with the molecule presented below.
State whether 20% exceeds %Inh recorded for CC(=O)c1cccc(NC(=O)NC2CCN(c3ccnc(Nc4ccc(F)cc4)n3)C2)c1 (stereo not drawn) . Yes

* * *

Tested on: ACVR2A
Conditions: concentration: 1 μM, replicates: in singlicate; n = 1
outcome measure: %Inh (%)
The reply should contain only the number, in %.

Worked cases, answers included:
structure	system tested	outcome measure	unit text	observed value
CNC(=O)c1ccc(C)c(-n2c(C)cc(OCc3ccc(F)cc3F)c(Br)c2=O)c1	ACVR2A	%Inh	%	0
COc1ccc(Nc2nccc(NCCNC(=O)Nc3cc(C)ccc3C)n2)cc1	ACVR2A	%Inh	%	2
O=C(Nc1n[nH]c2nc(-c3cccs3)c(Br)cc12)C1CC1	ACVR2A	%Inh	%	0
CNc1nc(-c2ccc3c(N)n[nH]c3c2)cc(N2C[C@@H](C(=O)NC3CCCCC3)OC[C@H]2C)n1	ACVR2A	%Inh	%	0

Indicate its recorded %Inh; the compound in question is CC(=O)c1c(C)c2cnc(Nc3ccn(C)n3)nc2n(C2CCCC2)c1=O 0

* * *

Test system: FGFR3
Settings: concentration: 1 μM, replicates: in singlicate; n = 1
Consider the following compounds and their measured %Inh readings.

Example entries begin here.
compound	%Inh
COc1ccc(CSc2nnc(-c3ccc4c(c3)CCO4)o2)cc1	0%
Cc1nccc(-c2c(-c3ccc(F)cc3)ncn2CCCN2CCOCC2)n1.Cl	33%
Fc1ccc(-c2nn3cccc(F)c3c2-c2ccncc2)cc1	6%
COc1ccc(Nc2nccc(N3CCC(NC(=O)C(C)c4ccc(Cl)cc4)CC3)n2)cc1 (stereo not drawn)	30%
CNc1cc(-c2ccc3c(N)n[nH]c3c2)nc(N)n1	28%
COc1ccc(Nc2nccc(N3CCC(NC(=O)C(C)c4ccc(Cl)cc4)C3)n2)cc1 (stereo not drawn)	17%
COc1ccc(Nc2nccc(-c3ccc(NC(=O)c4cc5cc(F)ccc5[nH]4)cc3)n2)cc1	9%
Cc1c(Cn2c(C)c(C)n3c(=O)cc(N4CCOCC4)nc23)cccc1C(F)(F)F	6%

Shift focus to the following entry.
Provide measured %Inh on FGFR3 for CCn1c(-c2ccccc2)nc2cnccc21 please. 0%
